- method: Toxicity liver stage against HepG2, at 10uM
- Assay type: cell-based
- Parameters: test concentration 10 uM, cell line HepG2-A16-CD81EGFP
- conditionNotes: human, HepG2-A16-CD81EGFP cells; read-out: INHIBITION
measuredMetric: cytotoxicity at 10 µM (%)
Your answer should be a plain number; it is taken to be in %.

Example entries begin here.
O=C(O)C(c1ccc2c(c1)OCO2)N1CCCC1 (stereo unspecified) ... -3.04
CN(CCO)Cc1nnc(C2CCN(CC(C)(C)C)CC2)n1C ... 1.89
CCn1cnnc1CNC(=O)N1CCC(OCc2ccccc2)CC1 ... -5.26

Specify cytotoxicity at 10 µM for `C[C@@H]1CN(C(=O)c2ccccc2F)C[C@]12CCN(CCN(C)C)C2=O` and stop.
3

Specify cytotoxicity at 10 µM for Cc1cc(C(=O)N2CCc3[nH]cnc3C2C(=O)O)c(-c2ccccc2)o1 (stereo unspecified) and stop.
-1.33

Specify cytotoxicity at 10 µM for CC(CC#N)N(C)Cc1ccccc1F (stereo unspecified) and stop.
10.4
